Molecular target: EF-P (A1S_2419) (Acinetobacter baumannii)
Sequence (A3M7E3 whole entry): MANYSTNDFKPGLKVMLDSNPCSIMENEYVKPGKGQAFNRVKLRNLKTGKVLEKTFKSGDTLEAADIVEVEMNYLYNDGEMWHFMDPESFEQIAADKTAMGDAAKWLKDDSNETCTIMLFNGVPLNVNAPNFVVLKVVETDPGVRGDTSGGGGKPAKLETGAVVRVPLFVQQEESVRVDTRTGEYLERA
test readout: Kd

INSERT INTO measurements (compound, measured_target, test_readout, recorded_measurement) VALUES
  ('Nc1nc2c(ncn2[C@@H]2O[C@@H]3COP(=O)(O)O[C@H]4[C@@H](O)[C@H](n5cnc6c(=O)[nH]c(N)nc65)O[C@@H]4COP(=O)(O)O[C@H]3[C@H]2O)c(=O)[nH]1 [c-di-GMP]', 'EF-P (A1S_2419) (Acinetobacter baumannii)', 'Kd', '5.9 µM');

====

Biological target: EF-P of A. albensis
pKd: −log10 of the molar value.
test readout: pKd

INSERT INTO results (input_smiles, measured_target, test_readout, recorded_measurement) VALUES
  ('Nc1nc2c(ncn2[C@@H]2O[C@@H]3COP(=O)(O)O[C@H]4[C@@H](O)[C@H](n5cnc6c(=O)[nH]c(N)nc65)O[C@@H]4COP(=O)(O)O[C@H]3[C@H]2O)c(=O)[nH]1', 'EF-P of A. albensis', 'pKd', 4.97);

Hello, the source for this data is paper PMC9564936, in case you need it.
